target_entity: Galectin-1 (Homo sapiens)
assay_text: fluorescence anisotropy assay, compound as inhibitor of galectin / fluorescein tagged saccharide probe interaction
Assay type: binding
pKd: −log10 of the molar value.
Collected pKd values appear next to each entry.

[
  {
    "smiles_data": "CO[C@@H]1[C@@H](n2cc(-c3csc(N)n3)nn2)[C@@H](O)[C@@H](CO)O[C@@H]1Sc1cc(Cl)cnc1-c1ccncc1",
    "target_entity": "Galectin-1 (Homo sapiens)",
    "pKd": 7.59
  },
  {
    "smiles_data": "C#Cc1cnc(C#N)c(S[C@H]2O[C@H](CO)[C@H](O)[C@H](n3cc(-c4csc(N)n4)nn3)[C@H]2OC)c1",
    "target_entity": "Galectin-1 (Homo sapiens)",
    "pKd": 6.96
  },
  {
    "smiles_data": "CO[C@@H]1[C@@H](n2cc(-c3csc(N)n3)nn2)[C@@H](O)[C@@H](CO)O[C@@H]1Sc1cc(Cl)cnc1-c1cccnc1",
    "target_entity": "Galectin-1 (Homo sapiens)",
    "pKd": 7.52
  },
  {
    "smiles_data": "CO[C@@H]1[C@@H](n2cc(-c3csc(N)n3)nn2)[C@@H](O)[C@@H](CO)O[C@@H]1Sc1cc(Cl)cnc1-c1nccs1",
    "target_entity": "Galectin-1 (Homo sapiens)",
    "pKd": 7.32
  },
  {
    "smiles_data": "C#Cc1cncc(S[C@H]2O[C@H](CO)[C@H](O)[C@H](n3cc(-c4nccs4)nn3)[C@H]2OC)c1",
    "target_entity": "Galectin-1 (Homo sapiens)",
    "pKd": 6.24
  },
  {
    "smiles_data": "CO[C@@H]1[C@@H](n2cc(-c3csc(N)n3)nn2)[C@@H](O)[C@@H](CO)O[C@@H]1Sc1cccc(Cl)c1",
    "target_entity": "Galectin-1 (Homo sapiens)",
    "pKd": 6.70
  }
]

###

Collected Kd values appear next to each entry.
target_entity: Galectin-1 (Homo sapiens, UniProt P09382)
Sequence (P09382 whole entry): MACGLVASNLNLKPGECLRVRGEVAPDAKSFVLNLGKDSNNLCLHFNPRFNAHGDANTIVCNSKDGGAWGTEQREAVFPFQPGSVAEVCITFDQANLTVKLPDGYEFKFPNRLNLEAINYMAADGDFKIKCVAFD
assay_text: fluorescence anisotropy assay, compound as inhibitor of galectin / fluorescein tagged saccharide probe interaction
Assay type: binding
measurement_context: read-out: Galectin-1 Kd

[
  {
    "molecule": "CO[C@@H]1[C@@H](n2cc(-c3csc(N)n3)nn2)[C@@H](O)[C@@H](CO)O[C@@H]1Sc1cc(Cl)c(F)c(Cl)c1 [Example 16]",
    "units_symbol": "nM",
    "Kd": 69
  },
  {
    "molecule": "COC1C(n2cc(-c3csc(N)n3)nn2)[C@@H](O)C(CO)O[C@@H]1Sc1ccc(Cl)c(Cl)c1 (some centres unmarked) [Example 28]",
    "units_symbol": "nM",
    "Kd": 63
  },
  {
    "molecule": "CO[C@@H]1[C@@H](n2cc(-c3csc(O)n3)nn2)[C@@H](O)[C@@H](CO)O[C@@H]1Sc1cc(Cl)c(F)c(Cl)c1 [Example 7]",
    "units_symbol": "nM",
    "Kd": 29
  },
  {
    "molecule": "CO[C@@H]1[C@@H](n2cc(-c3nccs3)nn2)[C@@H](O)[C@@H](CO)O[C@@H]1Sc1cc(Cl)c(F)c(Cl)c1 [Example 1]",
    "units_symbol": "nM",
    "Kd": 175
  },
  {
    "molecule": "CO[C@@H]1[C@@H](n2cc(-c3csc(O)n3)nn2)[C@@H](O)[C@@H](CO)O[C@@H]1Sc1ccc(Cl)c(Cl)c1 [Example 9]",
    "units_symbol": "nM",
    "Kd": 41
  }
]
